# Measured on: Aldo-keto reductase family 1 member B1 (Rattus norvegicus, UniProt P07943)
Readout: pIC50
A value of pIC50 is the negative decimal logarithm of a concentration given in moles per litre.

Param item = O=C(O)CC1(CC(=O)O)CCCC1 ; retrieve measured pIC50.
4.54
